Data credit: the supplement of paper PMC10126150

System: ATP;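 further: ATP exposure 15 min at 22 °C before imaging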
Experiment: switch fluorescence ratio, 500 uM ATP over buffer (Cy3 cluster intensity, sum of 5 cycles each) (fold (ratio)); higher = stronger signal-on switching upon ATP binding; sequences stand for … in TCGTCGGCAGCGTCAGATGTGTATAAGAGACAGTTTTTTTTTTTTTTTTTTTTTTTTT…TC
Conditions: aptamer strand: ATP DNA aptamer (quencher-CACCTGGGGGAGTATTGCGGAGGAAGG + anchor), 100 nM annealed; ATP concentration: 500 uM
# reported switch fluorescence ratio; entries follow

| Biosequence | switch fluorescence ratio |
| --- | --- |
| AGGAATGGGA | 1.02 |
| TTCGTACCGC | 1.09 |
| CTAGGTGCAA | 1.19 |
| GCGGAGTCGG | 0.996 |
| GGGTGATTTT | 0.992 |
| ATGGATAAGA | 1 |
| AAAAAGGGTA | 0.988 |
| AGAGACCCCG | 0.971 |
| CGCTTGTATT | 1.02 |
| ATGAGGTGGG | 0.992 |
| TAGCGTTTTT | 0.97 |
| AAGTTAACTT | 0.988 |
| ATAAATTTGT | 0.967 |
| ATTAAAAGTG | 0.986 |
| TAAGTGTAGC | 1.04 |
| AGTGAGGCGG | 1.02 |
| GGTCCTTAAT | 0.989 |
| ATCTGGAACG | 0.988 |
| TGAACGGTTC | 1.02 |
| GTGTTGGTAG | 0.984 |

* * *

Tested on: ATP;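 further: ATP exposure 15 min at 22 °C before imaging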
Assay: switch fluorescence ratio, 500 uM ATP over buffer (Cy3 cluster intensity, sum of 5 cycles each) (fold (ratio)); higher = stronger signal-on switching upon ATP binding; sequences stand for … in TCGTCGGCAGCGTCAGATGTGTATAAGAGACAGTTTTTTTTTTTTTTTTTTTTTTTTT…TC
Conditions: aptamer strand: ATP DNA aptamer (quencher-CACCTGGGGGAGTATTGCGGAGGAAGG + anchor), 100 nM annealed; ATP concentration: 500 uM
Label fulfilled when switch fluorescence ratio is at or above 1; otherwise label not fulfilled.

| Biosequence | Answer Label |
| --- | --- |
| AAAAATCACT | fulfilled |
| CGGACTCCCA | fulfilled |
| TAGTTGACCG | fulfilled |
| GGAACTGCTG | fulfilled |
| ATTTAATATG | not fulfilled |
| AAGGCCAATA | fulfilled |
| CGGGCGCACT | fulfilled |
| CATTGAGTGC | fulfilled |
| GGGGATAACA | fulfilled |
| ACCTTATATA | fulfilled |
| GCAGGTCTGT | not fulfilled |
| AGCGACGGAC | fulfilled |
| GGTTGGGGTT | not fulfilled |
| GGGACTTTAC | fulfilled |

* * *

Tested on: ATP;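 further: ATP exposure 15 min at 22 °C before imaging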
Experiment: switch fluorescence ratio, 500 uM ATP over buffer (Cy3 cluster intensity, sum of 5 cycles each) (fold (ratio)); higher = stronger signal-on switching upon ATP binding; sequences stand for … in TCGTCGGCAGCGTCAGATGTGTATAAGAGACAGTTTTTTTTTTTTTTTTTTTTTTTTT…TC
Settings: aptamer strand: ATP DNA aptamer (quencher-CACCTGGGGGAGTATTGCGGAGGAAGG + anchor), 100 nM annealed; ATP concentration: 500 uM
Parameter switch fluorescence ratio: see the listing below.

| Biosequence | switch fluorescence ratio |
| --- | --- |
| GCTATATGGC | 1.01 |
| TAGTTTCCCA | 0.971 |
| GGGGTTACAG | 1.01 |
| CAGGGGCGGG | 0.966 |
| GGGCTGGGTA | 0.993 |
| GACGTAACCT | 1.5 |
| TCAGACAGTT | 0.987 |
| ATTTCGATAT | 0.979 |
| TGATTCCGGT | 0.992 |
| ATGAAGGCGG | 1.05 |
| TTAGGGTTGT | 1 |
| TGATCGGATA | 1 |
| TTATATTCTT | 0.996 |
| TAACAGATGG | 1.01 |
| ATTCTCGTGG | 0.997 |
| CTCAGGTGTT | 1.73 |
| GGTTGCTCGG | 0.998 |
| ACGGTGGGTA | 1 |
| GCGTCTATTG | 0.999 |
| TAAAGGGCGA | 0.999 |

* * *

System: ATP;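 further: ATP exposure 15 min at 22 °C before imaging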
Assay: switch fluorescence ratio, 500 uM ATP over buffer (Cy3 cluster intensity, sum of 5 cycles each) (fold (ratio)); higher = stronger signal-on switching upon ATP binding; sequences stand for … in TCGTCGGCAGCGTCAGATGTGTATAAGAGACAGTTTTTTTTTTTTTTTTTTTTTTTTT…TC
Settings: aptamer strand: ATP DNA aptamer (quencher-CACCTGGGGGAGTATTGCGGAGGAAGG + anchor), 100 nM annealed; ATP concentration: 500 uM

| Biosequence | switch fluorescence ratio |
| --- | --- |
| ATTGATGAGT | 0.993 |
| ACTGGGATC | 1.01 |
| TGACCGCTTT | 1.12 |
| GGGGGTGGGG | 1.01 |
| TCGAGGTCGA | 1.01 |
| CATTAGTGGG | 0.988 |
| GTTTTATTGT | 0.955 |
| TAATGTGTTA | 1.04 |
| AATCTGCTTG | 1.05 |
| CGGTTGCATT | 1.04 |
| ATCGGTATTT | 1.19 |
| CGAATTTACC | 1.19 |
| AAGGGGGCCC | 0.99 |
| AAAGGGACGG | 0.983 |
| TTTTTGTTAT | 0.996 |
| TTTGAGTAAA | 1.01 |
| AGGTGCATAA | 1.05 |
| CGGGGTCCTC | 1.01 |
| TGTAGTAACG | 0.982 |
| AGGTTAATAT | 1 |
| GGTGTCTGT | 0.974 |
| ATGCTGCCTG | 1.01 |
| ACGAGTGGGC | 1 |
| TCGGGGGGGA | 1.06 |
| TGAGAGCTGA | 0.983 |
| CCTCAAAAAA | 2.98 |
| TGGAAAAGGG | 1.03 |
| TTCAGTTTTG | 0.982 |
| AGCTTGATTT | 1.01 |
| AGTATGACGT | 0.986 |
| TTTTTTAAGC | 1.01 |
| TTGGGCTAGG | 1 |
| AAAGAAGGGG | 0.995 |
| AGGTTGAAG | 0.976 |
| TACTTTCCCG | 1.29 |
| CGGCCGAACT | 1.03 |
| AAGGCGCGGT | 1.03 |
| AAGGCCGTGA | 1.03 |
| GATGCAGGGC | 1.12 |
| TAGTTTTTTT | 0.986 |
| GGATGAGTGC | 0.99 |
| TATTGGGGAT | 1.06 |
| CGCCGGGTTT | 1.02 |

* * *

Test system: ATP;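 further: ATP exposure 15 min at 22 °C before imaging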
Assay: switch fluorescence ratio, 500 uM ATP over buffer (Cy3 cluster intensity, sum of 5 cycles each) (fold (ratio)); higher = stronger signal-on switching upon ATP binding; sequences stand for … in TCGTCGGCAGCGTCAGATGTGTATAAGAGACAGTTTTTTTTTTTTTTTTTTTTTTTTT…TC
Conditions: aptamer strand: ATP DNA aptamer (quencher-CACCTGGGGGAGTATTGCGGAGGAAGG + anchor), 100 nM annealed; ATP concentration: 500 uM
switch fluorescence ratio by entry:
Measurement Type: switch fluorescence ratio

| Biosequence | Target Or System | Measurement Type | Observed |
| --- | --- | --- | --- |
| TTGTTAAATT | ATP | switch fluorescence ratio | 0.98 |
| AAAAGGGAGT | ATP | switch fluorescence ratio | 0.972 |
| CGACGGCTGG | ATP | switch fluorescence ratio | 1.01 |
| TTGTTATTAG | ATP | switch fluorescence ratio | 1.03 |
| TTTGTTGTAC | ATP | switch fluorescence ratio | 1.06 |
| TTCACTTGGA | ATP | switch fluorescence ratio | 1.03 |
| CGGGGGAGAG | ATP | switch fluorescence ratio | 0.985 |
| TGCAAAAAAT | ATP | switch fluorescence ratio | 1.02 |
| CGATCAGTTG | ATP | switch fluorescence ratio | 0.985 |
| TGCCAATATC | ATP | switch fluorescence ratio | 1.7 |
| TGGGGCCCCA | ATP | switch fluorescence ratio | 1.01 |
| GTCTGTTCGC | ATP | switch fluorescence ratio | 1.02 |
| TGGGAGGG | ATP | switch fluorescence ratio | 1.04 |
| GAGCTAAGGA | ATP | switch fluorescence ratio | 0.981 |
| TGTGGGATAG | ATP | switch fluorescence ratio | 0.979 |
| GGGTTTATGG | ATP | switch fluorescence ratio | 0.987 |
| GCATAAAGGG | ATP | switch fluorescence ratio | 0.989 |
| TTATTATGCC | ATP | switch fluorescence ratio | 1.02 |
| TGGTTGGTGC | ATP | switch fluorescence ratio | 1.16 |
| TTTCCCGTTT | ATP | switch fluorescence ratio | 1.13 |
| TAGGATGCAG | ATP | switch fluorescence ratio | 0.957 |
